Molecular target: KRas G12C (Homo sapiens, UniProt P01116, G12C)
Construct: Biotinylated KRas (corresponding to amino acids 1-169, produced at Accelegan Inc.); biotin (biotinylated); purchased Accelegan Inc
Sequence (P01116 1-169 isoform P01116-2 G12C): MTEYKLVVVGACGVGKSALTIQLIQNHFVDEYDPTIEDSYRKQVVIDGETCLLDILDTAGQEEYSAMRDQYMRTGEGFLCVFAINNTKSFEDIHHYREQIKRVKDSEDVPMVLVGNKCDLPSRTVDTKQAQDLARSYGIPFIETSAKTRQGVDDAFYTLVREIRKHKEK
Assay: KRas binding assay, TR-FRET displacement of Cy5 labelled tracer
Conditions: 60-minute incubation at room temperature, 1% DMSO, pH 7.5
Procedure: This Example illustrates that exemplary compounds of the present invention bind to KRas and are capable of displacing a labeled tracer ligand occupying the KRas binding site. […] The ability of a compound to bind to KRas was measured using a TR-FRET displacement assay. […] After a 60-minute incubation at room temperature, the reaction was measured using a BMG LABTECH CLARIO star Plus via TR-FRET. […]
Readout: IC50 (nM)

// below: answered compounds
Cc1ccn(C(=O)C2CCCCN(c3nc(OC[C@@]45CCCN4C[C@H](F)C5)nc4c(F)c(-c5ccc(F)c6sc(N)c(C#N)c56)c(Cl)cc34)CC2)n1 (stereo partly shown); 13
CCc1c(F)ccc2cc(O)cc(-c3ncc4c(NC[C@@H]5C[C@H]5C(=O)n5ccc(C)n5)nc(OC[C@@]56CCCN5C[C@H](F)C6)nc4c3F)c12 [Example 112]; 11

1. CN(CCNC(=O)n1cncn1)c1nc(OC[C@@]23CCCN2C[C@H](F)C3)nc2c(F)c(-c3ccc(F)c4sc(N)c(C#N)c34)c(Cl)cc12
2. CCc1c(F)ccc2cc(O)cc(-c3ncc4c(N(C)CCCC(=O)N(C)C(C)=O)nc(OC[C@@]56CCCN5C[C@@]5(CC5(F)F)C6)nc4c3F)c12
3. CN(C)C(=O)N(C)C(=O)CCCN(C)c1nc(OC[C@@]23CCCN2C[C@H](F)C3)nc2c(F)c(-c3ccc(F)c4sc(N)c(C#N)c34)c(Cl)cc12
4. CCc1c(F)ccc2cc(O)cc(-c3ncc4c(N5CCC(C(=O)Oc6ccccc6)CC5)nc(OC[C@@]56CCCN5C[C@H](F)C6)nc4c3F)c12
Query :: Rank by IC50 (largest to smallest). Order the labels as requested and list them.
Result :: 2, 4, 3, 1
(2: 72 nM, 4: 13 nM, 3: 6 nM, 1: 3 nM)

---

Biological target: KRas-mediated phosphorylation of ERK in A549 cells (Homo sapiens, UniProt P01116, G12S)
Construct: pERK HTRF read-out
Sequence (P01116 1-188 isoform P01116-2 G12S): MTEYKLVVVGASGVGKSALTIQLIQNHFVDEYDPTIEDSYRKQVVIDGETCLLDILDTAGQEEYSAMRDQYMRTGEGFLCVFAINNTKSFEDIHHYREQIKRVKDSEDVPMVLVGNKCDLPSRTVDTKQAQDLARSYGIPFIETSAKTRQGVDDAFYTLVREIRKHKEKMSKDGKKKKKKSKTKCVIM
Test: Inhibition of KRas-mediated phosphorylation of ERK (HTRF), A549 cells
Type: cell-based
Details: HTRF pERK, 3 h incubation
Readout: IC50 (nM)

N#Cc1c(N)sc2c(F)ccc(-c3c(Cl)cc4c(N5CCC(C(=O)Oc6ccc(Cl)cc6)CC5)nc(OC[C@@]56CCCN5C[C@H](F)C6)nc4c3F)c12; 113

1. Cc1ccn(C(=O)C2C[C@@H]3CN(c4nc(OC[C@@]56CCCN5C[C@H](F)C6)nc5c(F)c(-c6ccc(F)c7sc(N)c(C#N)c67)c(Cl)cc45)C[C@@H]3C2)n1 (some centres unmarked)
2. CCc1c(F)ccc2cc(O)cc(-c3ncc4c(N5CCC(C(=O)N6CCCCC6=O)CC5)nc(OC[C@@]56CCCN5C[C@H](F)C6)nc4c3F)c12
Query :: Form: Entry with minimum IC50 (choose one): 1 / 2 Write down the label of the entry you select.
Result :: 1
(1: 27 nM, 2: 6280 nM)

a. N#Cc1c(N)sc2c(F)ccc(-c3c(Cl)cc4c(N5CCC(C(=O)Oc6ccc(F)cc6)CC5)nc(OC[C@@]56CCCN5C[C@H](F)C6)nc4c3F)c12
b. CCc1c(F)ccc2cc(O)cc(N3CCc4c(nc(OC[C@@]56CCCN5C[C@H](F)C6)nc4N4CCCCCC(C(=O)n5ccc(C)n5)C4)C3)c12 (some centres unmarked)
c. CCc1c(F)ccc2cc(O)cc(-c3ncc4c(N5CCCC(C(=O)n6ccc(C)n6)CC5)nc(OCC5(CN(C)C)CC5)nc4c3F)c12 (centres unmarked)
d. C=CC1(C(=O)n2ccc(C)n2)CCN(c2nc(OC[C@@]34CCCN3C[C@H](F)C4)nc3c(F)c(-c4cc(O)cc5ccc(F)c(CC)c45)ncc23)CC1
Query :: Rank by IC50 (largest to smallest). Order the labels as requested and list them.
Result :: b, d, c, a
(b: 4250 nM, d: 1930 nM, c: 326 nM, a: 93 nM)

P. N#Cc1c(N)sc2c(F)ccc(-c3c(Cl)cc4c(N5CCC(C(=O)Oc6cccc(Cl)c6)CC5)nc(OC[C@@]56CCCN5C[C@H](F)C6)nc4c3F)c12
Q. CCc1c(F)ccc2cc(O)cc(N3CCc4c(nc(OC[C@@]56CCCN5C[C@H](F)C6)nc4N4CCCC(C(=O)n5ccc(C)n5)C4)C3)c12 (some centres unmarked)
Query :: Out of P and Q , name the one with the higher IC50. Write down the label of the entry you select.
Result :: Q

A. Cc1ccn(C(=O)C2CC3CN(c4nc(OC[C@@]56CCCN5C[C@H](F)C6)nc5c(F)c(-c6ccc(F)c7sc(N)c(C#N)c67)c(Cl)cc45)CC32)n1 (some centres unmarked)
B. Cc1ccn(C(=O)CCCCN(C)c2nc(OC[C@@]34CCCN3C[C@H](F)C4)nc3c(F)c(-c4ccc(F)c5sc(N)c(C#N)c45)c(Cl)cc23)n1
Query :: Out of A and B , name the one with the higher IC50. Write down the label of the entry you select.
Result :: B

---

Biological target: KRas-mediated phosphorylation of ERK in MKN1 cells (Homo sapiens, UniProt P01116)
Construct: pERK HTRF read-out
Sequence (P01116 1-188 isoform P01116-2): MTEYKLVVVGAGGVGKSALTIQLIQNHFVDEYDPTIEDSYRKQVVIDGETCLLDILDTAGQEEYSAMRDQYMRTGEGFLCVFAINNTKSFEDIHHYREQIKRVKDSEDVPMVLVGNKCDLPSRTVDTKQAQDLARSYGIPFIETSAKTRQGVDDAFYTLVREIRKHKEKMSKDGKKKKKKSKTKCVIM
Assay: Inhibition of KRas-mediated phosphorylation of ERK (HTRF), MKN1 cells
Assay type: cell-based
Settings: MKN1 cells (KRas WT); HTRF pERK; 3 h incubation
Readout: IC50 (nM)

// below: answered compounds
N#Cc1c(N)sc2c(F)ccc(-c3c(Cl)cc4c(N5CCN(C(=O)n6ccnn6)CC5)nc(OC[C@@]56CCCN5C[C@H](F)C6)nc4c3F)c12; 4
Cc1ccn(C(=O)[C@H]2CCCN(c3nc(OC[C@@]45CCCN4C[C@H](F)C5)nc4c(F)c(-c5ccc(F)c6sc(N)c(C#N)c56)c(Cl)cc34)CC2)n1 (atropisomer, axis not shown; (aS)) [Example 170]; 53
CCc1c(F)ccc2cc(O)cc(-c3ncc4c(N5CCN(C(=O)n6nccn6)CC5)nc(OC[C@@]56CCCN5C[C@H](F)C6)nc4c3F)c12 (single isomer, unassigned); 251
CCc1c(F)ccc2cc(O)cc(-c3ncc4c(N5CC6CC(C(=O)N(C)C(C)=O)C6C5)nc(OC[C@@]56CCCN5C[C@H](F)C6)nc4c3F)c12 (stereo partly shown); 2360
N#Cc1c(N)sc2c(F)ccc(-c3c(Cl)cc4c(N5CCN(S(=O)(=O)n6ccnn6)CC5)nc(OC[C@@]56CCCN5C[C@H](F)C6)nc4c3F)c12; 156
CCc1c(F)ccc2cc(O)cc(-c3ncc4c(N5CC6CCC(C5)C6C(=O)n5cccn5)nc(OC[C@@]56CCCN5C[C@H](F)C6)nc4c3F)c12 (stereo partly shown); 27
CCc1c(F)ccc2cc(O)cc(-c3ncc4c(N(C)CCCS(=O)(=O)n5cccn5)nc(OC[C@@]56CCCN5C[C@H](F)C6)nc4c3F)c12; 394
CCc1c(F)ccc2cc(O)cc(-c3ncc4c(N5C[C@@H](C)N(C(=O)n6ccc(C)n6)[C@H](C)C5)nc(OC[C@@]56CCCN5C[C@H](F)C6)nc4c3F)c12; 4230

A. COc1cccc(OC(=O)C2CCN(c3nc(OC[C@@]45CCCN4C[C@H](F)C5)nc4c(F)c(-c5ccc(F)c6sc(N)c(C#N)c56)c(Cl)cc34)CC2)c1
B. Cc1ccn(C(=O)C2C[C@@H]3CN(c4nc(OC[C@@]56CCCN5C[C@H](F)C6)nc5c(F)c(-c6ccc(F)c7sc(N)c(C#N)c67)c(Cl)cc45)C[C@@H]3C2)n1 (stereo partly shown)
Query :: Form: Entry with minimum IC50 (choose one): A / B Write down the label of the entry you select.
Result :: A

I. CCc1c(F)ccc2cc(O)cc(-c3ncc4c(N(C)CCCC(=O)N(C)C(C)=O)nc(OC[C@@]56CCCN5C[C@H](F)C6)nc4c3F)c12
II. CCc1c(F)ccc2cc(O)cc(-c3ncc4c(N(C)CCNC(=O)n5cncn5)nc(OC[C@@]56CCCN5C[C@H](F)C6)nc4c3F)c12
III. Cc1ccn(C(=O)C2CCN(c3nc(OC[C@@]45CCCN4C[C@H](F)C5)nc4c(F)c(-c5ccc(F)c6sc(N)c(C#N)c56)c(Cl)cc34)CC2)n1
Query :: Rank by IC50 (largest to smallest). Order the labels as requested and list them.
Result :: I, II, III
(I: 409 nM, II: 237 nM, III: 105 nM)
